Listed binders paired with reported EC50
- measured_target: T1, DLL3 on the surface of DLL3-positive cell lines SHP77 and NCI-H82 (UniProt Q9NYJ7 27-618, limits assumed)
- T1 construct: whole, on cells; The cell line of each number is named under assay
- T1 sequence (looked up): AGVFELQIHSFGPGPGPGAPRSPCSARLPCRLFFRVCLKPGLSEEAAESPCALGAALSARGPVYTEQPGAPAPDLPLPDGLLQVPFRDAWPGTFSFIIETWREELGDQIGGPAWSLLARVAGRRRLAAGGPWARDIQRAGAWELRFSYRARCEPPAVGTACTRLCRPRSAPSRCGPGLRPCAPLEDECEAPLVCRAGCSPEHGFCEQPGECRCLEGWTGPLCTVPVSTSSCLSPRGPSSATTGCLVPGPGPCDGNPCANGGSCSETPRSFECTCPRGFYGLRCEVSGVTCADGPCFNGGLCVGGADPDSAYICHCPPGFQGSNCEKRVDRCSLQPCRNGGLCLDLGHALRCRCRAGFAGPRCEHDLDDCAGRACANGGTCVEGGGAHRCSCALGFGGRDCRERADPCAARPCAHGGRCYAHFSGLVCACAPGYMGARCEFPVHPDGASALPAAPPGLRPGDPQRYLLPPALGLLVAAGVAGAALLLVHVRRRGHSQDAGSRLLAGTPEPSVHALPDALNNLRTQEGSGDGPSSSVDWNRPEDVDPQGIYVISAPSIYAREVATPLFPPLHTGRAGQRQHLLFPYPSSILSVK
- assay_overview: flow cytometry on NCI-H82 cells
Entry rule: numbers only, all in µg/mL.

These recorded examples may help you get a feel for the data.
[[record]]
binder = "Ab.73 scFv-human IgG Fc (Fc fusion, Tested as scFv-human IgG Fc; not shown: human IgG Fc) DVVMTQSPLSLPVTLGQPASISCRSSQSLGYSDGDTYLIWFLQRPGQSPRRLIYKVSNRDSGVPDRFSGSGSGTDFTLKISRVEAEDVGVYYCMQGTHWPYTFGQGTKLEIKGGGGSGGGGSGGGGSQVQVQESGPGLVKPSETLSLTCTVSTGSFSSHYWSWIRQPPGKSLEYIGYIYYTGTTNYNPSLKSRVTISVDTSKNQFSLNVNSVTAADTAVYYCAREGTFDIWGQGTMVTVSS"
observable = "EC50"
units_label = "µg/mL"
recorded_number = 0.042

[[record]]
binder = "Ab.55 scFv-human IgG Fc (Fc fusion, Tested as scFv-human IgG Fc; not shown: human IgG Fc) EVVMTQSPLSLPVTLGQPASVSCRSSQSLLYSDGNTYLIWFQQRPGQSPRRLLYKLSTRDSGVPDRFSGSGSGTDFTLKISRVEAEDVGIYYCMQVTHWPYTFGQGTKLEIKGGGGSGGGGSGGGGSQVQLRESGPGLVKPSETLSLTCTVSGDSLKNSYWGWIRQPPGKGLEWIGYIYYSGTSSYNPSLESRVTFSADTSKNQFSLKLSSVTAADTAVYYCSREGSFDVWGRGTLVTVSS"
observable = "EC50"
units_label = "µg/mL"
recorded_number = 0.15

[[record]]
binder = "Ab.76 scFv-human IgG Fc (Fc fusion, not shown: human IgG Fc) EIVMTQSPATLSVSPGERATLSCRASQSVSSNLAWYRQKPGQAPRLFIYGAYTRATDIPARFSGSGSGTEFTLTISSLQSEDFAVYYCQQYNNWPFTFGPGTKVDIKGGGGSGGGGSGGGGSEVQMVESGGVLVQPGMSLRLSCAASGFTFDDYAMHWVRQPPGKGLEWVSVISWNSGSIGYADSVKGRFTISRDNAKNSLYLQMNSLRAEDTAFYYCAKDLEGGVMDFDYWGQGTLVTVSS"
observable = "EC50"
units_label = "µg/mL"
recorded_number = 0.38

[[record]]
binder = "Ab.67 scFv-human IgG Fc (Fc fusion, Tested as scFv-human IgG Fc; not shown: human IgG Fc) DVVVTQSPLSLPVTLGQPASISCRSSQSLVYSDGNTYLNWFQQRPGQSPRRLVYQVSNRDSGVPDRFSGSGSGTDFTLKISGMEAEDAGVYYCMQGTHWPHTFGQGTKLEIKGGGGSGGGGSGGGGSEVHLVESGGGLVQPGGSLKLSCAASGFIFSGSSMHWVRQASGKGLEWIGRIRNKANNYATSYGASVQGRFTMSRDDSKNTAYLQMNSLKAEDTAVYYCTYLSGEFWGQGTLVTVSS"
observable = "EC50"
units_label = "µg/mL"
recorded_number = 0.11

[[record]]
binder = "Ab.63 scFv-human IgG Fc (Fc fusion, Tested as scFv-human IgG Fc; not shown: human IgG Fc) QIVLTQSPGTLSLSPGERATLSCRASQSVTRGYLAWYQQKPGQAPRLLFYGASNRATDIPDRFSGSGSGTDFTLIISRLEPEDFAVYYCQQYGISPLTFGGGTKVEIKGGGGSGGGGSGGGGSQVQLHESGPGLVKPSETLSLTCTVSGASISSYYWSWIRQPPGKGLEWIGYIYYSGTTNFNPSLKSRVTISVDTSKNQFSLRLSSVTTADTAVYYCANLALTGFHFDYWGQGTLVTVSS"
observable = "EC50"
units_label = "µg/mL"
recorded_number = 0.012

[[record]]
binder = "Ab.71 scFv-human IgG Fc (Fc fusion, Tested as scFv-human IgG Fc; not shown: human IgG Fc) DIGMTQSPDSLAVSLGERATINCKSSQNVLPNSNKKHYLSWYQQKPGQPPKLLIYLASTRASGVPDRFSGSGSGTDFTLTISSLQAEDVAVYYCQQYYSSPPEWTFGQGTKVEIKGGGGSGGGGSGGGGSQVQLVESGGGVVQPGRSLRLSCVASGFTFSNCGMHWVRQAPGKGLEWVAIIWYDGNIKYYGDSVKGRFTISRDNSKNTLYLQMNSLRVEDTAVYYCGRHDYGGNSFDYWGQGTLVTVSS"
observable = "EC50"
units_label = "µg/mL"
recorded_number = 0.027

[[record]]
binder = "Ab.79 scFv-human IgG Fc (Fc fusion, Tested as scFv-human IgG Fc; not shown: human IgG Fc) DVVMTQSPLSLPVTLGQPASISCRSSQSLVYNDGNTYLTWFQQWPGQSPRRLIYKVSNRDSGVPDRFSGSGSGTDFTLKISRVEAEDIGVYHCMQGTHWPYTFGQGTKLEIKGGGGSGGGGSGGGGSQVQVQESGPGLVKSSETLSLTCTVSGGSFRSYYWSWIRQPPGKGLDYIGYMYYSGTTNYNPSLTNRVSISVDTSKNQFSLKLNSVTAADTAVYYCAREGTFDIWGQGTVVTVSS"
observable = "EC50"
units_label = "µg/mL"
recorded_number = 0.064


Here's the next entry for you.
Reported EC50 for AMG757 (anti-DLL3 scFv from Amgen's patent, positive control) scFv-human IgG Fc (Fc fusion, not shown: human IgG Fc) EIVLTQSPGTLSLSPGERVTLSCRASQRVNNNYLAWYQQRPGQAPRLLIYGASSRATGIPDRFSGSGSGTDFTLTISRLEPEDFAVYYCQQYDRSPLTFGCGTKLEIKGGGGSGGGGSGGGGSQVQLQESGPGLVKPSETLSLTCTVSGGSISSYYWSWIRQPPGKCLEWIGYVYYSGTTNYNPSLKSRVTISVDTSKNQFSLKLSSVTAADTAVYYCASIAVTGFYFDYWGQGTLVTVSS was 0.082
